# System: Bacillus cereus
# measurement.protocol: Inhibition of Bacillus cereus phosphatidylcholine specific phospholipase C (PC-PLC BC) assessed as enzyme activity by measuring formation of resorufin fluorophore 10 uM by Amplex-Red based fluorescence assay relative to control
# Parameters: scale not given: the % may be the effect or the level left
property.measured: Activity (%)

Guide cases for Activity, answers given:
Incoming: Enter reported Activity observed with Bacillus cereus for COC(=O)c1cc(NCc2ccccc2F)ccc1C1CCOCC1
Outgoing: 62.3

Incoming: Enter reported Activity observed with Bacillus cereus for COC(=O)c1cc(NCc2ccccc2Br)ccc1C1CCOCC1
Outgoing: 112

Incoming: Enter reported Activity observed with Bacillus cereus for O=C(NO)c1ccc(NCc2ccc(Br)cc2)cc1N1CCOCC1
Outgoing: 45.6

Incoming: Enter reported Activity observed with Bacillus cereus for O=C(NO)c1cc(NCc2ccccc2F)ccc1C1CCOCC1
Outgoing: 94

Incoming: Enter reported Activity observed with Bacillus cereus for COc1ccccc1CNc1ccc(C(=O)O)c(N2CCOCC2)c1
Outgoing: 105

A: COC(=O)c1ccc(NCc2ccc(OC)cc2)cc1N1CCOCC1
B: O=C(NO)c1ccc(NCc2ccccc2Cl)cc1N1CCOCC1
C: COC(=O)c1ccc(NCc2ccccc2Br)cc1N1CCOCC1
Incoming: Sort low-to-high on Activity, please. Respond with an ordered listing of the labels, as requested.
Outgoing: C, B, A

I: COC(=O)c1cc(NCc2ccc(OC)cc2)ccc1C1CCOCC1
II: COC(=O)c1ccc(NCc2cccc(OC)c2)cc1N1CCOCC1
III: COc1ccc(CNc2ccc(C(=O)NO)c(N3CCOCC3)c2)cc1
Incoming: Ranking field: Activity; order: falling. Respond with an ordered listing of the labels, as requested.
Outgoing: II, I, III
(II: 109%, I: 75.4%, III: 45.5%)

---

# Tested on: Bacillus cereus
# measurement.protocol: Inhibition of Bacillus cereus phosphatidylcholine specific phospholipase C (PC-PLC BC) assessed as enzyme activity by measuring formation of resorufin fluorophore 10 uM by Amplex-Red based fluorescence assay relative to control
# Design: scale not given: the % may be the effect or the level left
property.measured: Activity (%)

Guide cases for Activity, answers given:
Incoming: Which value of Activity has been reported for O=C(NO)c1cc(NCc2ccc(Br)cc2)ccc1C1CCOCC1 in the records?
Outgoing: 71.4

Incoming: Which value of Activity has been reported for O=C(O)c1cc(NCc2ccc(Cl)cc2)ccc1C1CCOCC1 in the records?
Outgoing: 112

a: COC(=O)c1cc(NCc2ccccc2OC)ccc1C1CCOCC1
b: COc1ccccc1CNc1ccc(C(=O)NO)c(N2CCOCC2)c1
Incoming: Of the two listed items, which has the higher Activity? First: a Second: b Please respond with the label that marks your chosen entry.
Outgoing: a

---

# Test system: Bacillus cereus
# measurement.protocol: Inhibition of Bacillus cereus phosphatidylcholine specific phospholipase C (PC-PLC BC) assessed as enzyme activity by measuring formation of resorufin fluorophore 10 uM by Amplex-Red based fluorescence assay relative to control
# Design: scale not given: the % may be the effect or the level left
property.measured: Activity (%)

Incoming: Enter reported Activity observed with Bacillus cereus for COC(=O)c1cc(NCc2ccccc2)ccc1C1CCOCC1
Outgoing: 77.2

Incoming: Enter reported Activity observed with Bacillus cereus for O=C(O)c1cc(NCc2ccc(Br)cc2)ccc1C1CCOCC1
Outgoing: 105

Incoming: Enter reported Activity observed with Bacillus cereus for COC(=O)c1ccc(NCc2cccc(Cl)c2)cc1N1CCOCC1
Outgoing: 55.8

A: O=C(NO)c1ccc(NCc2ccc(Cl)cc2)cc1N1CCOCC1
B: O=C(O)c1cc(NCc2cccc(Cl)c2)ccc1N1CCOCC1
C: COc1ccc(CNc2ccc(C(=O)O)c(N3CCOCC3)c2)cc1
Incoming: Ranking field: Activity; order: falling. Respond with an ordered listing of the labels, as requested.
Outgoing: C, A, B
(C: 106%, A: 54.4%, B: 10.7%)

---

# Test system: Bacillus cereus
# measurement.protocol: Inhibition of Bacillus cereus phosphatidylcholine specific phospholipase C (PC-PLC BC) assessed as enzyme activity by measuring formation of resorufin fluorophore 10 uM by Amplex-Red based fluorescence assay relative to control
# Design: scale not given: the % may be the effect or the level left
property.measured: Activity (%)

Incoming: Which value of Activity has been reported for COC(=O)c1ccc(NCc2ccccc2F)cc1N1CCOCC1 in the records?
Outgoing: 105

I: O=C(O)c1ccc(NCc2ccccc2F)cc1N1CCOCC1
II: COC(=O)c1ccc(NCc2ccc(Cl)cc2)cc1N1CCOCC1
Incoming: Of the two listed items, which has the higher Activity? First: I Second: II Please respond with the label that marks your chosen entry.
Outgoing: I

I: O=C(NO)c1cc(NCc2cccc(Cl)c2)ccc1N1CCOCC1
II: O=C(NO)c1ccc(NCc2ccccc2Br)cc1N1CCOCC1
Incoming: Of I and II , which shows the smaller Activity value? Please respond with the label that marks your chosen entry.
Outgoing: I

P: O=C(NO)c1cc(NCc2ccc(Cl)cc2)ccc1C1CCOCC1
Q: O=C(O)c1ccc(NCc2cccc(Cl)c2)cc1N1CCOCC1
Incoming: Of the two listed items, which has the higher Activity? First: P Second: Q Please respond with the label that marks your chosen entry.
Outgoing: P

---

# measurement.protocol: Metabolic stability in Sprague-Dawley rat microsomes assessed as degradation in absence of NADPH at 10 uM measured up to 60 mins by HPLC analysis
# Assay type: ADME, Microsome
# condition.set: Sprague-Dawley, rat microsomes
property.measured: % remaining at 1 h, 10 µM (%)
Kindly answer with a numeric value in %, unit omitted.

Incoming: Which value of % remaining at 1 h, 10 µM has been reported for CN(Cc1ccccc1Cl)c1ccc(N2CCOCC2)c(C(=O)O)c1 in the records?
Outgoing: 94

---

# System: Bacillus cereus
# measurement.protocol: Inhibition of Bacillus cereus phosphatidylcholine specific phospholipase C (PC-PLC BC) assessed as enzyme activity by measuring formation of resorufin fluorophore 10 uM by Amplex-Red based fluorescence assay relative to control
# Parameters: scale not given: the % may be the effect or the level left
property.measured: Activity (%)

Incoming: Enter reported Activity observed with Bacillus cereus for O=C(O)c1ccc(NCc2ccccc2)cc1N1CCOCC1
Outgoing: 96.6

Incoming: Enter reported Activity observed with Bacillus cereus for COc1cccc(CNc2ccc(C3CCOCC3)c(C(=O)NO)c2)c1
Outgoing: 80.6

Incoming: Enter reported Activity observed with Bacillus cereus for O=C(NO)c1cc(NCc2ccc(F)cc2)ccc1C1CCOCC1
Outgoing: 93.7

Incoming: Enter reported Activity observed with Bacillus cereus for O=C(O)c1ccc(NCc2ccc(Br)cc2)cc1N1CCOCC1
Outgoing: 99.1

Incoming: Enter reported Activity observed with Bacillus cereus for O=C(O)c1ccc(NCc2cccc(Br)c2)cc1N1CCOCC1
Outgoing: 95.8

P: O=C(NO)c1cc(NCc2cccc(Br)c2)ccc1C1CCOCC1
Q: O=C(O)c1cc(NCc2ccccc2F)ccc1C1CCOCC1
Incoming: Of the two listed items, which has the higher Activity? First: P Second: Q Please respond with the label that marks your chosen entry.
Outgoing: P
(P: 75.2%, Q: 43.4%)

P: O=C(O)c1ccc(NCc2cccc(F)c2)cc1N1CCOCC1
Q: O=C(O)c1cc(NCc2cccc(F)c2)ccc1C1CCOCC1
Incoming: Of P and Q , which shows the smaller Activity value? Please respond with the label that marks your chosen entry.
Outgoing: Q

---

# Test system: Bacillus cereus
# measurement.protocol: Inhibition of Bacillus cereus phosphatidylcholine specific phospholipase C (PC-PLC BC) assessed as enzyme activity by measuring formation of resorufin fluorophore 10 uM by Amplex-Red based fluorescence assay relative to control
# Parameters: scale not given: the % may be the effect or the level left
property.measured: Activity (%)

Guide cases for Activity, answers given:
Incoming: Which value of Activity has been reported for O=C(NO)c1cc(NCc2cccc(F)c2)ccc1C1CCOCC1 in the records?
Outgoing: 88.2

Incoming: Which value of Activity has been reported for O=C(NO)c1ccc(NCc2ccc(F)cc2)cc1N1CCOCC1 in the records?
Outgoing: 49.2

1: COC(=O)c1cc(NCc2ccc(F)cc2)ccc1C1CCOCC1
2: COC(=O)c1cc(NCc2cccc(Cl)c2)ccc1C1CCOCC1
Incoming: Of 1 and 2 , which shows the smaller Activity value? Please respond with the label that marks your chosen entry.
Outgoing: 1
(1: 52%, 2: 104%)

I: COC(=O)c1cc(NCc2cccc(Br)c2)ccc1C1CCOCC1
II: COc1cccc(CNc2ccc(C(=O)NO)c(N3CCOCC3)c2)c1
Incoming: Of the two listed items, which has the higher Activity? First: I Second: II Please respond with the label that marks your chosen entry.
Outgoing: I

P: COC(=O)c1cc(NCc2cccc(OC)c2)ccc1C1CCOCC1
Q: O=C(O)c1ccc(NCc2ccccc2Cl)cc1N1CCOCC1
Incoming: Of P and Q , which shows the smaller Activity value? Please respond with the label that marks your chosen entry.
Outgoing: Q

I: COc1ccccc1CNc1ccc(C2CCOCC2)c(C(=O)NO)c1
II: O=C(NO)c1ccc(NCc2cccc(F)c2)cc1N1CCOCC1
III: O=C(O)c1ccc(NCc2ccc(Cl)cc2)cc1N1CCOCC1
Incoming: Ranking field: Activity; order: falling. Respond with an ordered listing of the labels, as requested.
Outgoing: I, II, III
(I: 80.7%, II: 49.1%, III: 32.4%)

1: COC(=O)c1ccc(NCc2ccc(Br)cc2)cc1N1CCOCC1
2: O=C(NO)c1ccc(NCc2ccccc2)cc1N1CCOCC1
Incoming: Of the two listed items, which has the higher Activity? First: 1 Second: 2 Please respond with the label that marks your chosen entry.
Outgoing: 1

A: COC(=O)c1ccc(NCc2cccc(Br)c2)cc1N1CCOCC1
B: O=C(NO)c1ccc(NCc2cccc(Br)c2)cc1N1CCOCC1
Incoming: Of A and B , which shows the smaller Activity value? Please respond with the label that marks your chosen entry.
Outgoing: B

P: COC(=O)c1ccc(NCc2ccccc2OC)cc1N1CCOCC1
Q: O=C(NO)c1ccc(NCc2ccccc2F)cc1N1CCOCC1
Incoming: Of P and Q , which shows the smaller Activity value? Please respond with the label that marks your chosen entry.
Outgoing: Q
(Q: 50.9%, P: 104%)

1: COC(=O)c1cc(NCc2ccc(Br)cc2)ccc1C1CCOCC1
2: COC(=O)c1cc(NCc2cccc(F)c2)ccc1C1CCOCC1
Incoming: Of the two listed items, which has the higher Activity? First: 1 Second: 2 Please respond with the label that marks your chosen entry.
Outgoing: 1
(1: 110%, 2: 44.5%)

Origin of measurements: ChEMBL document CHEMBL6182838
